Just for reference, patent US20260183275A1 is where these values come from.

We begin with a simple list: items and their reported pIC50.
# MEASURED_ON: human TLR8 (Homo sapiens, UniProt Q9NR97)
# Sequence (Q9NR97 27-1041): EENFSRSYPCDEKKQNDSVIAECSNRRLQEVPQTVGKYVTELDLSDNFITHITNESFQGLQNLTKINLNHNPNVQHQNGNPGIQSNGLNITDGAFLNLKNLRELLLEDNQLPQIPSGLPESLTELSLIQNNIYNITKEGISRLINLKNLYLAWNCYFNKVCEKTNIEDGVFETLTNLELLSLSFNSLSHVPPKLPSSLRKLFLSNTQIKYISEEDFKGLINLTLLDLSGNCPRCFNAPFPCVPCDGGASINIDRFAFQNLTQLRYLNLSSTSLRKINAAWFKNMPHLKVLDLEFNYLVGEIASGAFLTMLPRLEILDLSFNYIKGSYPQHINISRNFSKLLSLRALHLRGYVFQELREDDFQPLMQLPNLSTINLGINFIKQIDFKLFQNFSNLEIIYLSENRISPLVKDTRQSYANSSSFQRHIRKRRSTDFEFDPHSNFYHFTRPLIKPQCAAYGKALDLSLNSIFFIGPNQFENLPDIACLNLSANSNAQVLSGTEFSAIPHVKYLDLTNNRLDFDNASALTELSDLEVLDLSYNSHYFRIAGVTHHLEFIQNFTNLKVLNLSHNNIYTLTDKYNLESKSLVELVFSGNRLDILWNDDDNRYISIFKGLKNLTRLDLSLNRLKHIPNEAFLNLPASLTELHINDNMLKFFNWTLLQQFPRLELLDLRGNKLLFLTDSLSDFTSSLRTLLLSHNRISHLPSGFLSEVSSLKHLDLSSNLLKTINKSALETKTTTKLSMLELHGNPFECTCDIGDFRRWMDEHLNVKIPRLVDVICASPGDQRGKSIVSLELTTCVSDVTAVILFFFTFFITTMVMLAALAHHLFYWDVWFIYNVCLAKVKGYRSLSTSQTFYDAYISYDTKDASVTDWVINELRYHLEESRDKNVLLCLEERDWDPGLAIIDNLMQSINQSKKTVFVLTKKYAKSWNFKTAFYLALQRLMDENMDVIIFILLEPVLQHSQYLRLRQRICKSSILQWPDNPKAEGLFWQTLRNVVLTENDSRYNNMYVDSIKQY
# EXPERIMENT: TLR8 inhibition reporter assay (HEK-Blue cells, SEAP reporter)
# TEST_CONDITIONS: HEK-Blue cells overexpressing human TLR8; stimulated with R848 15.9 μM; SEAP read after 22 hour; dose range 0.05 nM-50 μM
pIC50: −log10 of the molar value.

Some compounds with known pIC50 results, for comparison:
CC(C)N1CCN(c2ccc(-c3ccc4[nH]c(=O)c(-c5c(F)cc(F)cc5F)cc4c3)cc2)CC1
≤ 4.30
CC(C)N1CCC(c2ccc(-c3ccc4[nH]c(=O)c(-c5ccc(S(C)(=O)=O)cc5)cc4c3)cc2)CC1
5.03
CCCC(=O)Nc1ccc(-c2cc3cc(-c4ccc(N5CCN(C(C)C)CC5)cc4)ccc3[nH]c2=O)cc1
≤ 4.30
O=c1[nH]c2ccc(-c3ccc(C4CCN(C5COC5)CC4)cc3)cc2cc1-c1ccc(OC(F)F)cc1
≤ 4.30
CC(C)N1CCN(c2ccc(-c3ccc4[nH]c(=O)c(-c5ccc(N6CC[C@@H](O)C6)cc5)cc4c3)cc2)CC1
≤ 4.30

Reported pIC50 for `CN1CCC(c2ccc(-c3ccc4[nH]c(=O)c(-c5ccc(NS(C)(=O)=O)cc5)cc4c3)cc2)CC1` was ≤ 4.30

Reported pIC50 for `CC(C)N1CCN(c2ccc(-c3ccc4[nH]c(=O)c(-c5ccc(C(=O)N(C)C)cc5)cc4c3)cc2)CC1` was ≤ 4.30

Reported pIC50 for `CC(C)N1CCN(c2ccc(-c3ccc4[nH]c(=O)c(-c5ccc(S(N)(=O)=O)cc5)cc4c3)cc2)CC1` was 5.69

Reported pIC50 for `CNC(=O)c1ccc(-c2cc3cc(-c4ccc(N5CCN(C(C)C)CC5)cc4)ccc3[nH]c2=O)cc1` was ≤ 4.30

Reported pIC50 for `CC(C)N1CCN(c2ccc(-c3ccc4[nH]c(=O)c(-c5c(Cl)cccc5Cl)cc4c3)cc2)CC1` was ≤ 4.30

Reported pIC50 for `CCc1c(-c2ccc(S(C)(=O)=O)cc2)c(=O)n(C)c2ccc(-c3ccc(N4CCN(C(C)C)CC4)cc3)cc12` was 6.44

* * *

# MEASURED_ON: human TLR7 (Homo sapiens, UniProt Q9NYK1)
# Sequence (Q9NYK1 27-1049): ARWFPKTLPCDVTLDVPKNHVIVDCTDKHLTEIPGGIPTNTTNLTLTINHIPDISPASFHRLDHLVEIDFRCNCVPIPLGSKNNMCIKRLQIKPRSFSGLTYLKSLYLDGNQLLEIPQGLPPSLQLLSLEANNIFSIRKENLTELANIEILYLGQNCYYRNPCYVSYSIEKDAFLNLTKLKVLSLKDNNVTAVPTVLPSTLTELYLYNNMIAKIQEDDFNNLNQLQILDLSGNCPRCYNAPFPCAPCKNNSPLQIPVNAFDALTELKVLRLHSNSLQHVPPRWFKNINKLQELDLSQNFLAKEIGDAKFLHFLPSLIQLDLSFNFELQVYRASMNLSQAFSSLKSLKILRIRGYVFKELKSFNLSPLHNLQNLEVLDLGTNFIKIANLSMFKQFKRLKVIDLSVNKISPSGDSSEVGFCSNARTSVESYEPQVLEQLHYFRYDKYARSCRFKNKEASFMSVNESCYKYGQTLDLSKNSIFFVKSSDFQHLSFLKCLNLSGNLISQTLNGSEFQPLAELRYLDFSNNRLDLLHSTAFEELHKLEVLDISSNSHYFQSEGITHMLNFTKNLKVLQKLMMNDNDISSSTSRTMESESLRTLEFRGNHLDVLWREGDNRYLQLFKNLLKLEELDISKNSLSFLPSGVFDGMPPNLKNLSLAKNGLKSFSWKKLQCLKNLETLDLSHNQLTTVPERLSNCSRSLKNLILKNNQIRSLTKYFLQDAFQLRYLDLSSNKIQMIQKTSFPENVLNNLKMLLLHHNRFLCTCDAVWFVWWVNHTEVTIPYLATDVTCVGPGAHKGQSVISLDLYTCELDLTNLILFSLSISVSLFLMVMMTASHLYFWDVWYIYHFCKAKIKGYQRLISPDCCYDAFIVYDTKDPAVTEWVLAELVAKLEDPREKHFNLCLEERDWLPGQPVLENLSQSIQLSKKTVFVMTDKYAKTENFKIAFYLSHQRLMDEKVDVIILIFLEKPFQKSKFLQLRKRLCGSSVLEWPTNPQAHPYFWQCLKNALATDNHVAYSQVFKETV
# EXPERIMENT: TLR7 inhibition reporter assay (HEK-Blue cells, SEAP reporter)
# TEST_CONDITIONS: HEK-Blue cells overexpressing human TLR7; stimulated with gardiquimod 7.5 μM; SEAP read after 22 hour; dose range 0.05 nM-50 μM
OBSERVATION_TYPE: IC50 (µM)

Some molecules with known IC50 results, for comparison:
CC(C)N1CCN(c2ccc(-c3ccc4[nH]c(=O)c(-c5ccc(-n6cnnn6)cc5)cc4c3)cc2)CC1
1.13
CC(C)N1CCC(c2ccc(-c3ccc4c(c3)cc(-c3ccc(N(C)S(C)(=O)=O)cc3)c(=O)n4C)cc2)CC1
12
CC(C)N1CCN(c2ccc(-c3ccc4[nH]c(=O)c(-c5ccc(C(=O)N6CCCC6(C)C)cc5)cc4c3)cc2)CC1
2.4
Cc1ccccc1-c1cc2cc(-c3ccc(N4CCN(C(C)C)CC4)cc3)ccc2[nH]c1=O
6.48
CN1CCC(c2ccc3[nH]c(=O)c(-c4ccc(S(C)(=O)=O)cc4)cc3c2)CC1
2.51

A. CC(C)Cn1c(=O)c(-c2ccc(S(C)(=O)=O)cc2)cc2cc(-c3ccc(C4CCN(C(C)C)CC4)cc3)ccc21
B. COc1ccc(-c2cc3cc(-c4ccc(N5CCN(C(C)C)CC5)cc4)ccc3[nH]c2=O)cc1OC
Challenge: Which shows the larger IC50 value: A or B ? Output the label that corresponds to your choice.
Response given: A
(A: 14.6 µM, B: 5.02 µM)

a. CC(C)N1CCN(c2ccc(-c3ccc4[nH]c(=O)c(-c5ccccc5)cc4c3)cc2)CC1
b. CC(C)N1CCN(c2ccc(-c3ccc4[nH]c(=O)c(-c5ccccc5C(F)(F)F)cc4c3)cc2)CC1
c. CC(C)N1CCN(c2ccc(-c3ccc4c(c3)cc(-c3ccccc3)c(=O)n4C)cc2)CC1
d. CC(C)N1CCC(c2ccc(Nc3ccc4c(c3)cc(-c3ccc(S(C)(=O)=O)cc3)c(=O)n4C)cc2)CC1
Challenge: Could you please sort these 4 entries by IC50 from high to low? Reply with the labels, ordered as the question asks.
Response given: c, a, d, b
(c: 32.6 µM, a: 16.7 µM, d: 6.63 µM, b: 2.23 µM)
